src = paper PMC10298284

List of melting point values.
outcome_measure: melting point

• COc1ccc(C23CC(C4=C(O2)C(=O)c2ccccc2C4=O)c2cc([N+](=O)[O-])ccc2O3)cc1OC (racemic) [(±)-58] = 148 to 150 °C
• COc1ccc(C23CC(c4cc([N+](=O)[O-])ccc4O2)c2c(O)cc(O)cc2O3)cc1OC (racemic) [(±)-43] = 193 to 195 °C
• O=C1C2=C(C(=O)c3ccccc31)C1CC(c3ccc(O)c(O)c3)(O2)Oc2ccccc21 (racemic) [(±)-54] = 190 to 192 °C (dec.)
• COc1ccc(C23CC(C4=C(CC(c5ccccc5)OC4=O)O2)c2cc(Cl)ccc2O3)cc1OC (racemic) [(±)-68a] = 106 to 108 °C
• COc1ccc(C2CC3=C(C(=O)O2)C2CC(c4ccc(OC)c(OC)c4)(O3)Oc3ccccc32)cc1 (racemic) [(±)-64a] = 172 to 175 °C
• O=C1C2=C(C(=O)c3ccccc31)C1CC(c3ccc(O)c(O)c3)(O2)Oc2ccc(Cl)cc21 (racemic) [(±)-56] = 300 to 302 °C (dec.)
• COc1ccc(C23CC(C4=C(CC(c5ccc(Cl)cc5)OC4=O)O2)c2cc(Cl)ccc2O3)cc1OC (racemic) [(±)-69a] = 172 to 175 °C
• COc1ccc(C23CC(C4=C(CC(c5ccc(Cl)cc5)OC4=O)O2)c2ccccc2O3)cc1OC (racemic) [(±)-63a] = 110 to 112 °C
• O=C1C2=C(C(=O)c3ccccc31)C1CC(c3ccc(O)cc3)(O2)Oc2ccc(Cl)cc21 (racemic) [(±)-61] = 249 to 251 °C
• O=c1oc2ccccc2c2c1C1CC(c3ccc(O)c(O)c3)(Oc3ccc(Cl)cc31)O2 (racemic) [(±)-47] = 98 to 100 °C (dec.)
• O=C1C2=C(C(=O)c3ccccc31)C1CC(c3ccc(O)cc3)(O2)Oc2ccc([N+](=O)[O-])cc21 (racemic) [(±)-60] = 270 to 273 °C (dec.)
• COc1ccc(C23CC(C4=C(O2)C(=O)c2ccccc2C4=O)c2cc(Cl)ccc2O3)cc1OC (racemic) [(±)-59] = 124 to 127 °C
• O=c1oc2ccccc2c2c1C1CC(c3ccc(O)cc3)(Oc3ccc(Cl)cc31)O2 (racemic) [(±)-53] = 250 to 252 °C (dec.)
